Assay: NCI Yeast Anticancer Drug Screen. Data for the rad50 strain (AID 155);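 note: 0% = growth of vehicle-only cultures of the same strain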
Settings: S. cerevisiae rad50 strain growth inhibition; at 50.0 µM; stronger effect = higher value
Compounds without any hit were thinned out: in the full panel of roughly 79,000, 15% have a hit. The source made the active and inactive calls. Cut-off read from the data, not from the text of the source: active = growth inhibition above about 70%; inactive = the rest. Where a SMILES comes first, the peptide text is derived from it. [ ]: non-standard residue; d: D form. ξ: configuration not given here. ξF = NC(Cc1ccccc1)C(=O)O
RECORDED_METRIC: growth inhibition

As a guide, the following entries are already answered.
COc1cc(/C=N/N2C(=O)c3ccccc3C2=O)ccc1O | 26.8% (inactive)
O=C(Nc1cccc(NC(=O)C(=O)C2CCC3=C(Sc4ccccc4N3)C2=O)n1)C(=O)C1CCC2=C(Sc3ccccc3N2)C1=O (stereo unspecified) | 2.5% (inactive)
Nc1ccccc1SC1CC(=O)N(c2cccc3ccccc23)C1=O (stereo unspecified) | -19.6% (inactive)
CC(=O)NCc1cc(CNC(C)=O)c(C)cc1C | -17.5% (inactive)
NC1N=C(c2ccc(Cl)cc2)C2=C(N1)c1ccccc1CC2 (stereo unspecified) | -7.1% (inactive)

In one line, give reported growth inhibition of the entry CC(C)c1nc(-c2ccccc2)c(-c2ccccc2)[nH]1 .
43.2% (inactive)

In one line, give reported growth inhibition of the entry Cc1ccc(S(=O)(=O)NCN2C(=O)c3ccccc3C2=O)cc1 .
-3.75% (inactive)

In one line, give reported growth inhibition of the entry Cc1ccc(-c2nc3cc(Cl)ccc3c(=O)o2)cc1 .
14.6% (inactive)

In one line, give reported growth inhibition of the entry CCOC(=O)/C=C(\C)Nc1ccc(F)cc1 .
-0.5% (inactive)

In one line, give reported growth inhibition of the entry COc1ccc(C2c3cc4c(c(OC)c3CC3OCC(=O)C32)OCO4)cc1OC (stereo unspecified) .
4.25% (inactive)

In one line, give reported growth inhibition of the entry COc1ccc(/C(C#N)=C2C=C(Cl)/C(=N/O)C=C/2Cl)cc1 .
-6.55% (inactive)

In one line, give reported growth inhibition of the entry COc1ccc2c(C)cc(N/N=C/c3ccc(C)s3)nc2c1 .
-23.4% (inactive)

In one line, give reported growth inhibition of the entry Cc1ccc(NC(=O)/C(Cc2cc(=O)oc3cc(O)ccc23)=N\NC(C)(C)C)cc1C .
-3.95% (inactive)

In one line, give reported growth inhibition of the entry COc1ccccc1-c1n[nH]c(-c2ccccc2O)n1 .
31.7% (inactive)

In one line, give reported growth inhibition of the entry Cc1ccc(N2CSC(=S)N(c3ccc(C)cc3)C2)cc1 .
-10.4% (inactive)

In one line, give reported growth inhibition of the entry NC(Cc1ccccc1)C(=O)NCC(=O)NCC(=O)O (stereo not drawn) (H-[ξF]-Gly-Gly-OH) .
13% (inactive)

====

Experiment: NCI Yeast Anticancer Drug Screen. Data for the rad50 strain (AID 155);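 note: 0% = growth of vehicle-only cultures of the same strain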
Conditions: S. cerevisiae rad50 strain growth inhibition; at 50.0 µM; stronger effect = higher value
This is part of a sample that, as a whole, favours compounds with a hit. Of some 79,000 tested, about 15% had one in any assay.
Overview of recorded growth inhibition for various molecules
Numbers only here, please. The scale is %.

COc1ccc(N=c2ssc(SC)c2-c2ccccc2)cc1 | 15.4
O=C(NNCN1C(=O)c2ccccc2C1=O)c1ccccc1 | -13.8
CCOC(=O)NC(C)(C)CN(C(=O)OCC)C(C)(C)CO | 3.5
COc1cc(-c2cc(=O)c3c(O)cc(O)cc3o2)cc(OC)c1OC | -8.15

In one line, give reported growth inhibition of the entry CC(C)C(C(=O)c1ccccc1)c1ccccc1 (stereo not given) .
-0.3
